Here the recorded pIC50 is given for each entry.
- measurement target: TNFα (Homo sapiens)
- procedure details: TNF induced HEK-Blue assay (NF-kB-driven secreted alkaline phosphatase reporter)
- Type: cell-based
- condition description: TNFα 0.5 ng/mL, HEK-Blue-CD40L cells, 18 h; read-out: TNF induced HEK-Blue assay IC50 value
pIC50: −log10 of the molar value. Where a name gives a salt, the structure may show the parent alone.

INSERT INTO results (molecule, measurement_target, meas_value) VALUES
  ('CC[C@@H](Nc1c(Cl)cnc2ccccc12)c1cc(-c2cncnc2)ccc1F', 'TNFα (Homo sapiens)', '> 6.00'),
  ('Cc1nc2ccc(-c3cnc(C(C)(C)O)nc3)cc2c(N[C@H](C)c2cc(C(C)(C)O)ccc2F)c1Cl [Example 408, TFA Salt]', 'TNFα (Homo sapiens)', '> 6.00');

Q: Query the reported pIC50 for TNFα (Homo sapiens); item: "CNC(=O)c1ccc(F)c([C@@H](C)Nc2c(Cl)cnc3ccc(-c4cnc(C(C)(C)O)nc4)cc23)c1"
Ans: 5.00 to 6.00

Q: Now give it for CC(Nc1c(Cl)cnc2cc(F)c(-c3ccc(C(O)CN4CCOCC4)cc3)cc12)c1ccccc1F (stereo not shown) [Example 286] too.
Ans: > 6.00

###

- measurement target: TNFα (Homo sapiens, UniProt P01375)
- Sequence (P01375 77-233 limits assumed): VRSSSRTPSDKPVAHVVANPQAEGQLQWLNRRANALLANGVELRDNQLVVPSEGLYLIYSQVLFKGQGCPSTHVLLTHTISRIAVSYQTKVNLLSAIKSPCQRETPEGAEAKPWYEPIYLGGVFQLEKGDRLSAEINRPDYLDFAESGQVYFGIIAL
- procedure details: TNF induced HEK-Blue assay (NF-kB-driven secreted alkaline phosphatase reporter)
- Format: cell-based
- condition description: TNFα 0.5 ng/mL, HEK-Blue-CD40L cells, 18 h; read-out: TNF induced HEK-Blue assay IC50 value
pIC50: −log10 of the molar value.
property name: pIC50

INSERT INTO results (molecule, meas_value) VALUES
  ('CC(Nc1c(Cl)c(N)nc2ccc(-c3cnc(N4CCN(CC(=O)O)CC4)nc3)cc12)c1ccccc1F (stereo not shown)', '> 6.00'),
  ('CC(C)(O)c1ncc(-c2cc3c(N[C@H]4C[C@@H]4c4ccccc4)c(Cl)cnc3cc2F)cn1 (mixture of isomers)', '5.00 to 6.00'),
  ('CNS(=O)(=O)c1ccc(-c2cc(Cl)c3ncc(Cl)c(NC(C)c4ccccc4F)c3c2)cc1 (racemic)', '4.60 to 5.00');

Q: For CC(Cc1cn(C)c(=O)c2ccccc12)Nc1c(Cl)cnc2ccc(-c3cnc(C(C)(C)O)nc3)cc12 (racemic) , what is its reported pIC50?
Ans: 4.60 to 5.00

###

- measurement target: TNFα (Homo sapiens, UniProt P01375)
- procedure details: TNF induced HEK-Blue assay (NF-kB-driven secreted alkaline phosphatase reporter)
- Type: cell-based
- condition description: TNFα 0.5 ng/mL, HEK-Blue-CD40L cells, 18 h; read-out: TNF induced HEK-Blue assay IC50 value
property name: IC50

INSERT INTO measurements (compound, meas_value) VALUES
  ('CC(Nc1c(Cl)cnc2cc(F)c(-c3cnc(C(C)(O)CO)nc3)cc12)c1ccccc1F (centres unmarked) [Example 257]', '< 1000 nM'),
  ('COC(=O)CCS(=O)(=O)c1ccc(F)c([C@@H](C)Nc2c(Cl)cnc3ccc(-c4cnc(C(C)(C)O)nc4)cc23)c1', '1000 to 10000 nM'),
  ('C[C@@H](Nc1c(Cl)cnc2ccc(-c3cnc(C(C)(C)O)nc3)cc12)c1cc(-c2cccnc2)ccc1F', '< 1000 nM'),
  ('CC(Nc1c(Cl)cnc2ccc(-c3ccc(C(C)(C)O)cc3)cc12)c1cnn(C)c1 (racemic)', '10000 to 25000 nM'),
  ('C[C@@H](Nc1c(Cl)cnc2cc(F)c(-c3cnc(C(C)(C)O)nc3)nc12)c1ccccc1', '< 1000 nM'),
  ('COC(=O)[C@H](CNC(C)=O)N1CCN(c2ncc(-c3ccc4ncc(Cl)c(N[C@H](C)c5ccccc5F)c4c3)cn2)CC1', '1000 to 10000 nM'),
  ('CC(Nc1c(Cl)cnc2ccc(-c3cnc(C(C)(C)O)nc3)cc12)c1ccc(C(F)(F)F)cc1 (racemic)', '10000 to 25000 nM'),
  ('C[C@@H](Nc1c(Cl)cnc2ccc(-c3ccc(C4(N)CC(O)C4)cc3)cc12)c1ccccc1F (mixture of isomers)', '< 1000 nM');

Q: Record "C[C@@H](Nc1c(Cl)cnc2ccc(-c3cnc(NC4(C(N)=O)CC4)nc3)cc12)c1ccccc1F" : what is its IC50 with TNFα (Homo sapiens, UniProt P01375)?
Ans: < 1000 nM

Q: Further, for "C[C@@H](Nc1c(Cl)cnc2ccccc12)c1cc(-c2cnn(C)c2)ccc1F" ?
Ans: < 1000 nM

Q: And "C[C@@H](Nc1c(Cl)cnc2ccccc12)c1cc(-c2cnc(N3CCOCC3)nc2)ccc1F" ?
Ans: 1000 to 10000 nM

Q: Same for "C=Cc1ccc(F)c([C@H](Nc2c(Cl)c(C)nc3cc(F)c(-c4cnc(C(C)(C)O)nc4)nc23)C(F)F)c1"
Ans: < 1000 nM

Q: Same read-out for "CCN(Cc1c(Cl)cnc2ccc(-c3cnc(C(C)(C)O)nc3)cc12)c1ccccc1" ?
Ans: 1000 to 10000 nM

Q: Follow-up item: "Cc1nc2ccc(-c3cnc(C(C)(C)O)nc3)cc2c(N[C@@H](c2cc(N3CCNC3=O)ccc2F)C(F)F)c1Cl"
Ans: < 1000 nM

Q: Also, CCC(Nc1c(Cl)cnc2ccc(-c3ccc(C(C)(C)O)cc3)cc12)c1nc(C(N)=O)ccc1F (racemic) please.
Ans: < 1000 nM

Q: Follow-up item: "C[C@@H](Nc1c(Cl)cnc2ccccc12)c1cc(-c2cnn(CCN3CCOCC3)c2)ccc1F"
Ans: 10000 to 25000 nM

###

- measurement target: UniProt:P01375
- procedure details: TNF induced HEK-Blue assay (NF-kB-driven secreted alkaline phosphatase reporter)
- Assay type: cell-based
- condition description: TNFα 0.5 ng/mL, HEK-Blue-CD40L cells, 18 h; read-out: TNF induced HEK-Blue assay IC50 value
Listing of entries alongside the reported IC50.

Record excerpt, results attached:
INSERT INTO results (compound, measurement_target, property_name, meas_value) VALUES
  ('C=Cc1ccc(F)c([C@@H](C)Nc2c(Cl)c(C)nc3ccc(-c4cnc(C(C)(C)O)nc4)cc23)c1', 'UniProt:P01375', 'IC50', '< 1 µM'),
  ('CCC(Nc1c(Cl)cnc2ccc(-c3cnc(C(C)(C)O)nc3)cc12)c1nc(C(=O)O)ccc1F (stereo not shown)', 'UniProt:P01375', 'IC50', '1 to 10 µM'),
  ('C=Cc1cccc([C@@H](C)Nc2c(Cl)cnc3cc(F)c(-c4cnc(C(C)(C)O)nc4)nc23)c1', 'UniProt:P01375', 'IC50', '< 1 µM');

Now turn to the next compound.
Q: Fill in: IC50 of "Cc1nc2ccc(-c3cnc(C(C)(C)O)nc3)cc2c(N[C@H](C)c2cc(OCC(=O)O)ccc2F)c1Cl" is ___
Ans: < 1 µM

###

- measurement target: UniProtKB P01375
- procedure details: TNF induced HEK-Blue assay (NF-kB-driven secreted alkaline phosphatase reporter)
- Type: cell-based
- condition description: TNFα 0.5 ng/mL, HEK-Blue-CD40L cells, 18 h; read-out: TNF induced HEK-Blue assay IC50 value
property name: IC50

Here are 3 molecules together with their reported answers.
INSERT INTO assay_data (item_smiles, meas_value) VALUES
  ('CNc1ncc(-c2ccc3ncc(Cl)c(N[C@H](C)c4ccccc4F)c3c2)cn1', '10000 to 25000 nM'),
  ('CC(C)(O)c1ncc(-c2nc3c(N[C@H](c4cc(C(N)=O)ccc4F)C(F)F)c(Cl)cnc3cc2F)cn1', '< 1000 nM'),
  ('C[C@@H](Nc1c(Cl)cnc2ccc(-c3cnc(C(C)(C)O)nc3)cc12)c1cccc(N2CCOCC2)c1', '< 1000 nM');

Switching to the query record.
Q: Dear colleague, I am looking for the recorded IC50 of the following molecule: "Cc1nc2ccc(-c3cnc(C(C)(C)O)nc3)cc2c(N[C@H](C)c2ccccc2F)c1Cl"
Ans: < 1000 nM

###

- measurement target: UniProt:P01375
- procedure details: TNF induced HEK-Blue assay (NF-kB-driven secreted alkaline phosphatase reporter)
- Format: cell-based
- condition description: TNFα 0.5 ng/mL, HEK-Blue-CD40L cells, 18 h; read-out: TNF induced HEK-Blue assay IC50 value
property name: IC50

Q: Could you share which IC50 value was measured for CC(Nc1c(Cl)cnc2cc(F)c(-c3ccc(C4(O)CCC(C(=O)O)CC4)cc3)cc12)c1ccccc1F (racemic) [Example 251] ?
Ans: < 1000 nM

###

- measurement target: TNFα (Homo sapiens)
- procedure details: TNF induced HEK-Blue assay (NF-kB-driven secreted alkaline phosphatase reporter)
- Type: cell-based
- condition description: TNFα 0.5 ng/mL, HEK-Blue-CD40L cells, 18 h; read-out: TNF induced HEK-Blue assay IC50 value
pIC50: −log10 of the molar value.
property name: pIC50

Below are worked cases with known answers.
INSERT INTO measurements (molecule, meas_value) VALUES
  ('CC(Nc1c(Cl)cnc2cc(F)c(-c3cnc(N4CCN(C(=O)[C@H](N)CO)CC4)nc3)cc12)c1ccccc1F (single isomer, unassigned)', '> 6.00'),
  ('Cc1nc2ccc(-c3cnc(N4CCN(CC(=O)O)CC4)nc3)cc2c(N[C@H](C)c2cc(C(N)=O)ccc2F)c1Cl', '> 6.00'),
  ('CNC(=O)CN1CCN(c2ncc(-c3ccc4ncc(Cl)c(N[C@H](C)c5ccccc5F)c4c3)cn2)CC1', '> 6.00'),
  ('Cc1nc2ccc(-c3cnc(C(C)(C)O)nc3)cc2c(N[C@H](C)c2cc(N)ccc2F)c1Cl', '> 6.00'),
  ('CC1=C(CC(C)Nc2c(Cl)cnc3ccc(-c4cnc(C(C)(C)O)nc4)cc23)CCC1(C)C (racemic)', '5.00 to 6.00');

From here, focus on the item given below.
Q: Please look up its pIC50: "C[C@@H](Nc1c(Cl)cnc2ccc(F)cc12)c1cc(-c2cncnc2)ccc1F"
Ans: > 6.00
